Ref: patent US20180037644A1

Target: T1, human IL-33 (mm2) (human, UniProt O95760 112-270)
T1 chain: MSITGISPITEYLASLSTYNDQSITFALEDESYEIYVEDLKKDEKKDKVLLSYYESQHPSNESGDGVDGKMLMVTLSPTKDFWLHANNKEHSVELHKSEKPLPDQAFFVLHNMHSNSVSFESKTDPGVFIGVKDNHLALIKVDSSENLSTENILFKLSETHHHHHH
Assay: cell-based or functional assay
assay.readout: estimated IC50, HEK293 ST2 NFkB (pM)
# value in pM; strip the unit string

In the examples that follow, each entry is paired with its recorded estimated IC50, HEK293 ST2 NFkB.
- binder: "9B3-13 (antibody, human IgG1, kappa, V domains shown) VH: EVQLVETGGGLVQPGRSLKLSCVASGFTFSNYWMYWIRQAPGMGLEWVSSINNDGGNTYYLDSVKGRFTISRNNAENTVYLQMNSLRSEDTATYYCARGHYYYNSYSFAHWGQGTLVTVSS VL: DIQMTQSPSVLSASVGDRVTLSCKASHNINKHLDWYQQKVGEAPKLLIYFTNNLQTGIPSRFSGSGSGTDYTLTISSLQPEDVATYFCFQYNSGWTFGQGTKVEIKR"
  unit: "pM"
  observed.measurement: 175
- binder: "7E8H/9B3K (antibody, human IgG1, kappa, V domains shown) VH: EVQLVETGGGLVQPGRSLKLSCKTSGFTFSSYWMYWIRQAPGKGLEWVSSITPNGGNTYYPDSVKGRFTISRDNAENTIYLQMSSLRSEDTATYFCAKGHYYYTSYSLGYWGQGSLVTVSS VL: DIQMTQSPSVLSASVGDRVTLSCKASHNINKHLDWYQQKVGEAPKLLIYFTNNLQTGIPSRFSGSGSGTDYTLTISSLQPEDVATYFCFQYNSGWTFGQGTKVEIKR"
  unit: "pM"
  observed.measurement: 15
- binder: "9B3-563 (antibody, human IgG1, kappa, V domains shown) VH: EVQLVETGGGLVQPGRSLKLSCVASGFTFSNYWMYWIRQAPGMGLEWVSSINNDGGNTYYLDSVKGRFTISRNNAENTVYLQMNSLRSEDTATYYCAKGHYYYSSYSFAYWGQGTLVTVSS VL: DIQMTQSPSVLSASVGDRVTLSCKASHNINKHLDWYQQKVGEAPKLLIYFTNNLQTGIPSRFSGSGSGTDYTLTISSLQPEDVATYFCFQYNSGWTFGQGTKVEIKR"
  unit: "pM"
  observed.measurement: 177
- binder: "9B3-162 (antibody, human IgG1, kappa, V domains shown) VH: EVQLVETGGGLVQPGRSLKLSCVASGFTFSNYWMYWIRQAPGMGLEWVSSINNDGGNTYYLDSVKGRFTISRNNAENTVYLQMNSLRSEDTATYYCAKGHYYYSSYSFGYWGQGTLVTVSS VL: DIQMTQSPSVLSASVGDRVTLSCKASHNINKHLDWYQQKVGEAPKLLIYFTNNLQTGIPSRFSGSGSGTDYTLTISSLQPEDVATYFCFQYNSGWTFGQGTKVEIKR"
  unit: "pM"
  observed.measurement: 67

Identify measured estimated IC50, HEK293 ST2 NFkB corresponding to 9B3-79 (antibody, human IgG1, kappa, V domains shown) VH: EVQLVETGGGLVQPGRSLKLSCVASGFTFSNYWMYWIRQAPGMGLEWVSSINNDGGNTYYLDSVKGRFTISRNNAENTVYLQMNSLRSEDTATYYCARGHYYYTSYSFAYWGQGTLVTVSS VL: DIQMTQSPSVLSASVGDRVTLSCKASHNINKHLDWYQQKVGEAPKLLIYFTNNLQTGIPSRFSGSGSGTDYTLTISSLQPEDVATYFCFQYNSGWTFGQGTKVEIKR
63
